Molecular target: WDR5 (Homo sapiens, UniProt P61964)
Experiment: Surface Plasmon Resonance (SPR) assay
Format: binding
Set-up: Full length WDR5 with an N-terminal His tag and C-terminal AviTag; His tag (N); made in house; host or cells: E. coli
Conditions: read-out: SPR Kd
Overview of recorded Kd for various compounds
# value in nM; strip the unit string

Consider the following illustrative entries.
{"columns": ["COMPOUND STRUCTURE", "SYSTEM", "MEASUREMENT KIND", "TEST RESULT"],
 "data": [
  ["C[C@H]1CN(c2cc(F)c(C3=CCN(c4ncc(C#N)s4)CC3)c(F)c2NC(=O)c2c[nH]c(=O)cc2C(F)F)CCN1C", "WDR5 (Homo sapiens, UniProt P61964)", "Kd", 0.78],
  ["C[C@H]1CN(c2cc(F)c(-c3cnc(N4CCNCC4)nc3)c(F)c2NC(=O)c2ccc(F)cc2C(F)(F)F)CCN1C", "WDR5 (Homo sapiens, UniProt P61964)", "Kd", 1.35],
  ["C[C@@H]1CN(c2ccc(-c3c(F)cc(N4CCN(C)[C@@H](C)C4)c(NC(=O)c4c[nH]c(=O)cc4C(F)F)c3F)cn2)CCO1", "WDR5 (Homo sapiens, UniProt P61964)", "Kd", 0.64],
  ["C[C@H]1CN(c2cc(F)c(C3=CCN(c4ncc(F)cn4)C3)c(F)c2NC(=O)c2c[nH]c(=O)cc2C(F)(F)F)CCN1C", "WDR5 (Homo sapiens, UniProt P61964)", "Kd", 1.27],
  ["C[C@@H]1CN(c2cc(F)c(-c3cnc(N(C)C)c(F)c3)c(F)c2NC(=O)c2c[nH]c(=O)cc2C(F)(F)F)C[C@H](C)N1C", "WDR5 (Homo sapiens, UniProt P61964)", "Kd", 1.81]
]}

q: Which measured Kd value corresponds to C[C@@H]1CN(c2nccc(-c3c(F)cc(N4CCN(C)[C@@H](C)C4)c(NC(=O)c4c[nH]c(=O)cc4C(F)F)c3F)n2)C[C@H](C)O1 ?
a: 1.14

Values were extracted from patent US20200385371A1.
